target: human GST (Homo sapiens, UniProt P08263); construct: The open reading frames encoding PfGST, PbGST, and hGST were gene-synthesized; TEV cleavage site (C); Avitag (C); purchased InterRayBio, LLC; host or cells: E. coli BL21 (DE3); assay: GST inhibition assay (CDNB); type: biochemical; details: 6-point 1–50 µM
Sequence (P08263 whole entry): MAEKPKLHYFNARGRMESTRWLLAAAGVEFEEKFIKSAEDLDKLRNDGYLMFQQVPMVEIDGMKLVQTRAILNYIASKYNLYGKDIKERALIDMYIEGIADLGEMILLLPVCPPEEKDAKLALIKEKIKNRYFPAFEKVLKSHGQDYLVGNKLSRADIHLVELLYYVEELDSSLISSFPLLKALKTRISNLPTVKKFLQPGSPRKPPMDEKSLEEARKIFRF
MEASURED ATTRIBUTE: GST inhibition

chemical_structure=COc1cccc(/C=N/NC(=O)c2cc(-c3ccccc3)nc3ccccc23)c1O measured_attribute="GST inhibition" test_value="did not inhibit"
chemical_structure=O=C(N/N=C/c1c(O)ccc2ccccc12)c1cc([N+](=O)[O-])cc([N+](=O)[O-])c1 measured_attribute="GST inhibition" test_value="did not inhibit"
chemical_structure=O=C(Nc1cc(Cl)ccc1O)c1cc2nc(-c3ccccc3)cc(-c3ccccc3)n2n1 measured_attribute="GST inhibition" test_value="did not inhibit"
chemical_structure=COc1cccc(/C=N/NC(=O)c2nc(-c3ccccc3)cc(-c3ccccc3)n2)c1O measured_attribute="GST inhibition" test_value="did not inhibit"
chemical_structure=O=C(NN=Cc1ccccc1O)c1cc(-c2ccccc2)nc2ccccc12 measured_attribute="GST inhibition" test_value="did not inhibit"

Shift focus to the following entry.
Supply reported GST inhibition belonging to this molecule: "O=C(N/N=C/c1cc(Br)ccc1O)/C(=C/C=C/c1ccccc1)NC(=O)c1ccccc1"
did not inhibit

---

Reported Prevalence % is given for each of the following compounds.
system: P. falciparum oocyst formation in Anopheles stephensi mosquitoes; assay: P. falciparum oocyst inhibition assay (SMFA); assay type: in vivo, Plasmodium falciparum; conditions: 1 µM; pooled from two representative experiments
Report the figure in % without appending any unit label.

Answered cases to consult:
chemical_structure=COc1cccc(/C=N/NC(=O)c2nc(-c3ccccc3)cc(-c3ccccc3)n2)c1O tested_on="P. falciparum oocyst formation in Anopheles stephensi mosquitoes" test_value=85
chemical_structure=COc1cccc(/C=N/NC(=O)c2cc(-c3ccccc3)nc3ccccc23)c1O tested_on="P. falciparum oocyst formation in Anopheles stephensi mosquitoes" test_value=75
chemical_structure=O=C(NN=Cc1ccccc1O)c1cc(-c2ccccc2)nc2ccccc12 tested_on="P. falciparum oocyst formation in Anopheles stephensi mosquitoes" test_value=59
chemical_structure=O=C(N/N=C/c1c(O)ccc2ccccc12)c1cc([N+](=O)[O-])cc([N+](=O)[O-])c1 tested_on="P. falciparum oocyst formation in Anopheles stephensi mosquitoes" test_value=59

Supply reported Prevalence % belonging to this compound: "O=C(N/N=C/c1cc(Br)ccc1O)/C(=C/C=C/c1ccccc1)NC(=O)c1ccccc1"
82

---

tested on: P. cynomolgi hypnozoites and hepatic schizonts; test: P. cynomolgi liver-stage inhibition assay; assay type: cell-based, Plasmodium cynomolgi; conditions: Plasmodium cynomolgi; prophylactic drug treatment mode; read-out: Schizont IC50
pIC50: −log10 of the molar value.
Reported pIC50 is given for each of the following compounds.

Answered cases to consult:
compound="O=C(N/N=C/c1cc(Br)ccc1O)/C(=C/C=C/c1ccccc1)NC(=O)c1ccccc1 [CB-50]" test_value="< 5.00"
compound="COc1cccc(/C=N/NC(=O)c2nc(-c3ccccc3)cc(-c3ccccc3)n2)c1O [CB-41]" test_value=5.08
compound="O=C(Nc1cc(Cl)ccc1O)c1cc2nc(-c3ccccc3)cc(-c3ccccc3)n2n1 [CB-59]" test_value="< 5.00"
compound="COc1cccc(/C=N/NC(=O)c2cc(-c3ccccc3)nc3ccccc23)c1O [CB-58]" test_value="< 5.00"

Shift focus to the following entry.
Supply reported pIC50 belonging to this compound: O=C(NN=Cc1ccccc1O)c1cc(-c2ccccc2)nc2ccccc12 [CB-53]
< 5.00

---

Reported Median oocyst # is given for each of the following compounds.
tested on: P. falciparum oocyst formation in Anopheles stephensi mosquitoes; test: P. falciparum oocyst inhibition assay (SMFA); type: in vivo, Plasmodium falciparum; details: 2.5 μM compound
Keep the answer to the number alone.

GET Median oocyst # where system = P. falciparum oocyst formation in Anopheles stephensi mosquitoes and item = O=C(NN=Cc1ccccc1O)c1cc(-c2ccccc2)nc2ccccc12 [CB-53]
1

GET Median oocyst # where system = P. falciparum oocyst formation in Anopheles stephensi mosquitoes and item = COc1cccc(/C=N/NC(=O)c2nc(-c3ccccc3)cc(-c3ccccc3)n2)c1O [CB-41]
44

GET Median oocyst # where system = P. falciparum oocyst formation in Anopheles stephensi mosquitoes and item = O=C(N/N=C/c1c(O)ccc2ccccc12)c1cc([N+](=O)[O-])cc([N+](=O)[O-])c1 [CB-61]
1

GET Median oocyst # where system = P. falciparum oocyst formation in Anopheles stephensi mosquitoes and item = O=C(N/N=C/c1cc(Br)ccc1O)/C(=C/C=C/c1ccccc1)NC(=O)c1ccccc1 [CB-50]
9

GET Median oocyst # where system = P. falciparum oocyst formation in Anopheles stephensi mosquitoes and item = COc1cccc(/C=N/NC(=O)c2cc(-c3ccccc3)nc3ccccc23)c1O [CB-58]
7

---

test system: P. falciparum oocyst formation in Anopheles stephensi mosquitoes; test: P. falciparum oocyst inhibition assay (SMFA); format: in vivo, Plasmodium falciparum; conditions: 2.5 µM; pooled from two representative experiments
MEASURED ATTRIBUTE: Median (oocysts)
Keep the answer to the number alone.

chemical_structure=COc1cccc(/C=N/NC(=O)c2cc(-c3ccccc3)nc3ccccc23)c1O measured_attribute="Median (oocysts)" test_value=7
chemical_structure=O=C(NN=Cc1ccccc1O)c1cc(-c2ccccc2)nc2ccccc12 measured_attribute="Median (oocysts)" test_value=1
chemical_structure=O=C(N/N=C/c1c(O)ccc2ccccc12)c1cc([N+](=O)[O-])cc([N+](=O)[O-])c1 measured_attribute="Median (oocysts)" test_value=1
chemical_structure=O=C(N/N=C/c1cc(Br)ccc1O)/C(=C/C=C/c1ccccc1)NC(=O)c1ccccc1 measured_attribute="Median (oocysts)" test_value=9

Shift focus to the following entry.
GET Median (oocysts) where system = P. falciparum oocyst formation in Anopheles stephensi mosquitoes and item = "COc1cccc(/C=N/NC(=O)c2nc(-c3ccccc3)cc(-c3ccccc3)n2)c1O"
44

---

test system: P. cynomolgi hypnozoites and hepatic schizonts; experiment: P. cynomolgi liver-stage inhibition assay; type: cell-based, Plasmodium cynomolgi; conditions: Plasmodium cynomolgi, read-out: Hypnozoite IC50
pIC50: −log10 of the molar value.
MEASURED ATTRIBUTE: pIC50

Supply reported pIC50 belonging to this molecule: "O=C(N/N=C/c1c(O)ccc2ccccc12)c1cc([N+](=O)[O-])cc([N+](=O)[O-])c1"
< 5.00

---

test system: P. falciparum oocyst formation in Anopheles stephensi mosquitoes; assay: P. falciparum oocyst inhibition assay (SMFA); type: in vivo, Plasmodium falciparum; details: 2.5 μM compound; P. falciparum midgut infection in An. stephensi mosquitoes
MEASURED ATTRIBUTE: Mean oocyst # excluding zeros (Range)

Answered cases to consult:
chemical_structure=O=C(NN=Cc1ccccc1O)c1cc(-c2ccccc2)nc2ccccc12 test_value="29 (0-115)"
chemical_structure=O=C(N/N=C/c1cc(Br)ccc1O)/C(=C/C=C/c1ccccc1)NC(=O)c1ccccc1 test_value="26 (0-103)"
chemical_structure=COc1cccc(/C=N/NC(=O)c2nc(-c3ccccc3)cc(-c3ccccc3)n2)c1O test_value="51 (0-123)"

Supply reported Mean oocyst # excluding zeros (Range) belonging to this compound: "O=C(N/N=C/c1c(O)ccc2ccccc12)c1cc([N+](=O)[O-])cc([N+](=O)[O-])c1"
20 (0-65)

Supply reported Mean oocyst # excluding zeros (Range) belonging to this compound: "COc1cccc(/C=N/NC(=O)c2cc(-c3ccccc3)nc3ccccc23)c1O"
26 (0-103)

---

test system: P. cynomolgi hypnozoites and hepatic schizonts; experiment: P. cynomolgi liver-stage inhibition assay; type: cell-based, Plasmodium cynomolgi; conditions: Plasmodium cynomolgi, read-out: Total parasite IC50
pIC50: −log10 of the molar value.
MEASURED ATTRIBUTE: pIC50

Supply reported pIC50 belonging to this molecule: "O=C(N/N=C/c1c(O)ccc2ccccc12)c1cc([N+](=O)[O-])cc([N+](=O)[O-])c1"
< 5.00

---

tested on: P. falciparum W2; assay: Malaria SYBR Green I-Based Fluorescence (MSF) assay, blood stages; assay type: cell-based; conditions: Plasmodium falciparum, W2; blood stages, 72 hours, CQ resistant strain; read-out: IC50 (µM) (±SD) for strain: W2
MEASURED ATTRIBUTE: IC50 (µM)
Report the figure in µM without appending any unit label.

compound="O=C(N/N=C/c1cc(Br)ccc1O)/C(=C/C=C/c1ccccc1)NC(=O)c1ccccc1 [CB-50]" test_value=1.15
compound="O=C(Nc1cc(Cl)ccc1O)c1cc2nc(-c3ccccc3)cc(-c3ccccc3)n2n1 [CB-59]" test_value=0.69
compound="COc1cccc(/C=N/NC(=O)c2cc(-c3ccccc3)nc3ccccc23)c1O [CB-58]" test_value=5.63

Shift focus to the following entry.
Supply reported IC50 belonging to this compound: COc1cccc(/C=N/NC(=O)c2nc(-c3ccccc3)cc(-c3ccccc3)n2)c1O [CB-41]
2.71

---

tested on: P. cynomolgi hypnozoites and hepatic schizonts; assay: P. cynomolgi liver-stage inhibition assay; assay type: cell-based, Plasmodium cynomolgi; conditions: Plasmodium cynomolgi; prophylactic drug treatment mode; read-out: Hypnozoite IC50
MEASURED ATTRIBUTE: IC50

Answered cases to consult:
chemical_structure=O=C(NN=Cc1ccccc1O)c1cc(-c2ccccc2)nc2ccccc12 test_value="> 10 µM"
chemical_structure=O=C(N/N=C/c1cc(Br)ccc1O)/C(=C/C=C/c1ccccc1)NC(=O)c1ccccc1 test_value="> 10 µM"
chemical_structure=O=C(Nc1cc(Cl)ccc1O)c1cc2nc(-c3ccccc3)cc(-c3ccccc3)n2n1 test_value="> 10 µM"

Supply reported IC50 belonging to this molecule: "COc1cccc(/C=N/NC(=O)c2cc(-c3ccccc3)nc3ccccc23)c1O"
> 10 µM

Supply reported IC50 belonging to this molecule: "COc1cccc(/C=N/NC(=O)c2nc(-c3ccccc3)cc(-c3ccccc3)n2)c1O"
8.7 µM

Entry source: paper PMC11620517
